# credit: patent US11299489B1

- Assayed System: UniProt:P10721
- Sequence (P10721 544-976): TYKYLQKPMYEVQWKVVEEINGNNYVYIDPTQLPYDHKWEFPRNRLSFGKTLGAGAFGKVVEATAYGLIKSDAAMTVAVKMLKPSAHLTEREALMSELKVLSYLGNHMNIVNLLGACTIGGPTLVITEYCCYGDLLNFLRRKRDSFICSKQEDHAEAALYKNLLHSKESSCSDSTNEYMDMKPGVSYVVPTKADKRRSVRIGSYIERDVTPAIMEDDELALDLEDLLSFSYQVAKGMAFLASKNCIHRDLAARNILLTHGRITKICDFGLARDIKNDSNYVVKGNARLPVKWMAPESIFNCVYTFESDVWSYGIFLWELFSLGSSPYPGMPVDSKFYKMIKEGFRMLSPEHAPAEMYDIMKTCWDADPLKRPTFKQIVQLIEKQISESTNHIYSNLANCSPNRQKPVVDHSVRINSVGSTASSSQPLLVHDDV
Structures can show the parent of a compound that is named as a salt.

| Compound | IC50 |
| --- | --- |
| Cc1nc(Nc2ncc(-c3ccncc3)s2)cc(N2CCNCC2)n1 [Compound 1 HCl salt, dihydrochloride] | < 100 nM |
